- MEASUREMENT_DESCRIPTION: qHTS for Inhibitors of human tyrosyl-DNA phosphodiesterase 1 (TDP1): qHTS in cells in absence of CPT; also: nearly all actives have a fitted effect of over 55% in size
- APPLIED_CONDITIONS: DT40 Tdp1-/- hTDP1 cells, no CPT, ATP luminescence, 48 h
Hit rate of the full screen: of about 420,000 compounds, about 64,000 (15%) were called active. Inconclusive results (about 27%) are left out. Calls follow the shape of the dose curve; as a rule, active = well fitted inhibition curve with a large enough effect; inconclusive = small, poorly fitted or top-dose-only effect; inactive = flat fitted curve, though single readings scatter. Not all results are given here.
Please answer using one outcome listed in active, inactive

Past entries and their recorded results:
[[record]]
compound = "COc1ccc(/C=N/NC(=O)c2ccc(Cl)cc2)cc1COC(C)=O"
classification = "inactive"

[[record]]
compound = "Cc1ccc(C)c(S(=O)(=O)Nc2cccc(-n3cnnn3)c2)c1"
classification = "inactive"

[[record]]
compound = "COc1cccc2c1OCC(C(=O)NCc1ccc(Cl)cc1Cl)=C2"
classification = "inactive"


Query :: Please let me know the test result on file for `COc1cccc(-c2cc(C(=O)N/N=C/c3ccc(OC)c(COC(C)=O)c3)c3ccccc3n2)c1` .
Result :: active

Query :: Query `Brc1cccc[n+]1Cc1cccc(C[n+]2ccccc2Br)c1` next
Result :: active

Query :: Further, for `CC(=O)Nc1cccc(-c2nc3ccccc3s2)c1C` ?
Result :: inactive

Query :: Repeat for the following compound: `Clc1cccc[n+]1CCCC[n+]1ccccc1Cl`
Result :: inactive

Query :: Field entry: `Cc1cc2c(cc1C)N(Cc1ccccc1)C1=NCCCN12`
Result :: active

Query :: Cool, now `Cc1ccc(-c2cc(C(=O)N/N=C/C=C/c3ccco3)c3ccccc3n2)cc1C`
Result :: active

Query :: Now the same for `COc1ccc(/C=N/NC(=O)c2cc(-c3cccc(C)c3)nc3ccccc23)cc1O`
Result :: active

Query :: Record: `CCOc1ccc(-c2cc(C(=O)N/N=C/c3ccc(O)cc3)c3ccccc3n2)cc1`
Result :: active

Query :: Next: `Cc1nonc1C(=O)N/N=C/c1ccc(O)cc1`
Result :: inactive

---

- MEASUREMENT_DESCRIPTION: qHTS for Inhibitors of human tyrosyl-DNA phosphodiesterase 1 (TDP1): qHTS in cells in absence of CPT; also: nearly all actives have a fitted effect of over 55% in size; also: potency is read from the fitted curve at half-maximal effect
- APPLIED_CONDITIONS: DT40 Tdp1-/- hTDP1 cells, no CPT, ATP luminescence, 48 h
The campaign covered roughly 420,000 compounds. About 64,000 (15%) were called active. About 27% were inconclusive and are not listed. The list is a sample of the results.
EXPERIMENTAL_ENDPOINT: Potency

The cases that follow already have their Potency on record.
[[record]]
molecule = "COc1cc(/C=N/N=C(\\N)c2nonc2N)cc(OC)c1OC"
result = "inactive"

[[record]]
molecule = "O=C(O)c1cccc(N=NN2CCCCCC2)c1"
result = "inactive"

[[record]]
molecule = "COc1ccc(/C=N/n2c(C)cc(C)cc2=O)cc1"
result = "inactive"

[[record]]
molecule = "Cc1cc(N2CCN(c3ccc(F)cc3)CC2)n2ncnc2n1"
result = "16.4 µM (active)"

[[record]]
molecule = "CCCNC(=O)c1cc2c(c(-c3cccc(-c4ccc(C#N)cc4)c3)n1)[C@@H](CCO)N(C(=O)CC)C2"
result = "18.4 µM (active)"


Here are 3 molecules. What values of Potency were reported for them?
1. COc1ccc(Nc2cc(=O)n(-c3ccccc3)c3c2c(=O)n(C)c(=O)n3C)cc1
2. Cc1c(C(=O)NCC2CC2)sc(=O)n1Cc1cccc(F)c1
3. CCCCCc1ccc(-c2ccc(OCC)cc2)nc1

Result ::
inactive
inactive
inactive
